- Tested on: Klebsiella pneumoniae
- ASSAY NOTES: Antibacterial activity against Klebsiella pneumoniae ATCC 13883 after 12 to 18 hrs by twofold dilution method
- Format: functional
Mark each entry True if its MIC sits below 8 µg/mL, and False for all others.

Please review the following examples before continuing.
NCC[C@H](O)C(=O)N[C@@H]1C[C@H](N)[C@@H](O[C@H]2O[C@H](CN)[C@@H](O)[C@H](O)[C@H]2O)[C@H](O)[C@H]1O[C@H]1O[C@H](CO)[C@@H](O)[C@H](N)[C@H]1O
True
NC[C@H]1O[C@H](O[C@H]2[C@H](O)[C@@H](O[C@H]3O[C@H](CO)[C@@H](O)[C@H](N)[C@H]3O)[C@H](N)C[C@@H]2N)[C@H](O)[C@@H](O)[C@@H]1O
True
C[n+]1nn(Cc2ccccn2)c2c1C(=O)c1ccccc1C2=O.[Cl-]
False

Next:
Problem: Item "C[n+]1nn(C2CCNCC2)c2c1C(=O)c1ccccc1C2=O.[Cl-]" : MIC beneath 8 µg/mL, strictly?
Result: False
